Target desc: UniProt O00763
Sequence (O00763 whole entry): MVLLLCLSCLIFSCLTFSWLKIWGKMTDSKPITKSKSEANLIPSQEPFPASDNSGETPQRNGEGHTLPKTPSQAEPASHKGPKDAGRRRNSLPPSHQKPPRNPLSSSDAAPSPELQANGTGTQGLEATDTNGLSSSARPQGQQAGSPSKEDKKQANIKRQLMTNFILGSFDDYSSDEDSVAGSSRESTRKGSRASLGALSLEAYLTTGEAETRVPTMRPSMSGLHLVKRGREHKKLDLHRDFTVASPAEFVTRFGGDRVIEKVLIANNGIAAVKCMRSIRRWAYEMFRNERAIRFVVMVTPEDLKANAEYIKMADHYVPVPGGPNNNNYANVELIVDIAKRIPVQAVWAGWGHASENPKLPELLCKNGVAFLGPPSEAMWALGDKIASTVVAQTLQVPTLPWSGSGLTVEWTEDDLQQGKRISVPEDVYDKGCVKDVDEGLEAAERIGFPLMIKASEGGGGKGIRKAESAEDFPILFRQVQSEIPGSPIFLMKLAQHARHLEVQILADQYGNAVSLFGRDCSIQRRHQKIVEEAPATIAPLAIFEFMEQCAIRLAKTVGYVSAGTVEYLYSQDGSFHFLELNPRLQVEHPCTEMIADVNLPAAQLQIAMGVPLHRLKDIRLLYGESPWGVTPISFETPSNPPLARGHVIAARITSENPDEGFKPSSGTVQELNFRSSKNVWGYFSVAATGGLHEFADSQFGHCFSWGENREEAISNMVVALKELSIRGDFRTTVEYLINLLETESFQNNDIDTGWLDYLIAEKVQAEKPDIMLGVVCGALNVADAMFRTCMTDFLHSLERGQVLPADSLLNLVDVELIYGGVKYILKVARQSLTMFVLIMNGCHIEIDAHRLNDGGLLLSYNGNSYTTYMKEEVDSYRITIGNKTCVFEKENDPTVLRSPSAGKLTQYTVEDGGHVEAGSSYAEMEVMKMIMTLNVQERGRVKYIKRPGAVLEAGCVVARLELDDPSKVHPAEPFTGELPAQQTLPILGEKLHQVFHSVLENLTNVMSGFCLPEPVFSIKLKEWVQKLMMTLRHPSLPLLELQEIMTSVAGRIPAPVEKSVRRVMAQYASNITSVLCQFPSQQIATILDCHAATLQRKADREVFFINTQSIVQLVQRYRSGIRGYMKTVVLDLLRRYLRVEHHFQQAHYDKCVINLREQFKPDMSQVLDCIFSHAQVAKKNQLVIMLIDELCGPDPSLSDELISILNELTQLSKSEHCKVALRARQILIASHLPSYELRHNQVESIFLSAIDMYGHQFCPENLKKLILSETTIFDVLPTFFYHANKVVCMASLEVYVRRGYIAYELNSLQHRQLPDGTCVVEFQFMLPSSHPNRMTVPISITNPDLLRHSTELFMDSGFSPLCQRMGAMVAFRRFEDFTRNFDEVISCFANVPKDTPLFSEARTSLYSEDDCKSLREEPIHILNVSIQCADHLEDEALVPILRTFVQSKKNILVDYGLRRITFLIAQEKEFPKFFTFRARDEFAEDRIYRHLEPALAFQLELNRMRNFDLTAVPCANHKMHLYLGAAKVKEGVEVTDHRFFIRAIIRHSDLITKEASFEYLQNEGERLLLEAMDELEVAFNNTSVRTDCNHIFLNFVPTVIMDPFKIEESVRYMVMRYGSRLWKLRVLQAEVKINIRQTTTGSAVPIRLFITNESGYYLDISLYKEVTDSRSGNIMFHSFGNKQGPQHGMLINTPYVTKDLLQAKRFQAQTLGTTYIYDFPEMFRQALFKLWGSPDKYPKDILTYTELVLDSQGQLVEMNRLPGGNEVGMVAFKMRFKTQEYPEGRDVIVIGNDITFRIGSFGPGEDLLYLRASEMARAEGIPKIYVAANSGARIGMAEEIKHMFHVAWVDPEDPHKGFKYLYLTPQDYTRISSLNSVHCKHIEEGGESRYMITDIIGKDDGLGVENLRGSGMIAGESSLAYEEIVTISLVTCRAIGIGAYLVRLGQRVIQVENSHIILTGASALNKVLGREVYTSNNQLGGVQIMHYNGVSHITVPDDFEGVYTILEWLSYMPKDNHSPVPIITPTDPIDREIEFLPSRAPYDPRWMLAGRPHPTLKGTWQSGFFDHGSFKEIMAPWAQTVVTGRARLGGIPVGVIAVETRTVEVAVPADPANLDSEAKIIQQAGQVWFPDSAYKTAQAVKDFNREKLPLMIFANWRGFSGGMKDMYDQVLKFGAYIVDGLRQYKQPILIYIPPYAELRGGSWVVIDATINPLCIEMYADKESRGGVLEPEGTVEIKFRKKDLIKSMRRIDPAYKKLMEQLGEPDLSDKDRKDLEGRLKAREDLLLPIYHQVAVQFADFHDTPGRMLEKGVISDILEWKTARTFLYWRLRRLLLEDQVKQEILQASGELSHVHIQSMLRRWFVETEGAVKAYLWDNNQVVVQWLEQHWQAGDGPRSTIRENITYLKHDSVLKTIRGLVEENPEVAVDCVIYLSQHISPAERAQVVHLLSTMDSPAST
Protocol text: In vitro ACC inhibition assay (ADP-Glo), hACC2
Assay type: biochemical
Experimental setup: Table 2b, additional results, 5 nM ACC2, 20 μM ATP, 20 μM acetyl-CoA
Readout type: IC50

Reference set (8 entries):
{"columns": ["Molecule", "Target desc", "IC50"],
 "data": [
  ["COc1ccc(F)cc1[C@H](Cn1c(=O)n(C(C)(C)C(N)=O)c(=O)c2c(C)c(-n3nccn3)sc21)OC(C)C", "UniProt O00763", "1 to 5 nM"],
  ["COc1ccc(F)cc1[C@H](Cn1c(=O)n(C(C)(C)C(=O)NC2CCC2)c(=O)c2c(C)c(-n3nccn3)sc21)OC1CCOCC1", "UniProt O00763", "5 to 10 nM"],
  ["COc1ccc(F)cc1CCn1c(=O)n(C(C)(C)C(=O)NC(C)C)c(=O)c2c(C)c(-n3nccn3)sc21 [Compound I-268]", "UniProt O00763", "10 to 40 nM"],
  ["COc1ccc(F)cc1[C@H](Cn1c(=O)n([C@@H](C)C(N)=O)c(=O)c2c(C)c(-n3nccn3)sc21)OCC(C)(C)O", "UniProt O00763", "5 to 10 nM"],
  ["COc1ccc(F)cc1[C@H](Cn1c(=O)n(C(C)(C)C(=O)N2CCCC2)c(=O)c2c(C)c(-n3nccn3)sc21)OCC(O)C(F)(F)F (stereo partly shown)", "UniProt O00763", "1 to 5 nM"],
  ["CCc1ccc(F)cc1[C@H](Cn1c(=O)n(C(C)(C)C(=O)O)c(=O)c2c(C)c(-n3nccn3)sc21)OCCO", "UniProt O00763", "1 to 5 nM"],
  ["COCCOc1ccc(F)cc1[C@H](Cn1c(=O)n(C(C)(C)C(=O)N2CCCC2)c(=O)c2c(C)c(-n3nccn3)sc21)OC1CCOCC1", "UniProt O00763", "1 to 5 nM"],
  ["C=CCN(C)C(=O)C(C)(C)n1c(=O)c2c(C)c(-n3nccn3)sc2n(C[C@H](OC(C)C)c2cc(F)ccc2OC)c1=O", "UniProt O00763", "5 to 10 nM"]
]}

Prompt: If you can, please state the reported IC50 value of "Cc1c(-n2nccn2)sc2c1c(=O)n(C(C)(C)C(=O)NC(C)C)c(=O)n2C[C@H](OCC(C)(C)O)c1cc(F)ccc1OCC#N" .
Completion: 10 to 40 nM

Prompt: What do you get for "Cc1c(-n2nccn2)sc2c1c(=O)n(C(C)(C)C(=O)NC(C)C)c(=O)n2C[C@H](OCCC#N)c1cc(F)ccc1OCc1ccccc1" ?
Completion: 5 to 10 nM
